Consider the following molecules; for each one, report its viability, T/C.
system: 454973-116-R2-J3-PDC spheroids, viability, % test/control; test: Anticancer human tumor 454973-116-R2-J3-PDC patient-derived pancreatic carcinoma cell line growth inhibition [GQUAD]; conditions: second compound 0.316 µM; first compound 0.1 µM; active compounds read low; spheroids with HUVEC and MSC;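 further: spheroids exposed to compounds for seven days; 100% = DMSO vehicle control viability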
Write it as a number; the unit % goes unstated.

Prompt line: Answer briefly: viability, T/C recorded on 454973-116-R2-J3-PDC spheroids, viability, % test/control for CC1COCCN1c1cc(C2(O)CC3CCC(C2)O3)c2cnn(-c3ccn[nH]3)c2n1 (centres undefined) + CN(C)c1ccc(Nc2c3ccc(NC(=O)CCN4CCCC4)cc3nc3cc(NC(=O)CCN4CCCC4)ccc23)cc1
Response line: 61.5

Prompt line: Answer briefly: viability, T/C recorded on 454973-116-R2-J3-PDC spheroids, viability, % test/control for CC(=O)O[C@H]1C(=O)[C@@]2(C)[C@H]([C@H](OC(=O)c3ccccc3)[C@]3(O)C[C@H](OC(=O)[C@H](O)[C@@H](NC(=O)c4ccccc4)c4ccccc4)C(C)=C1C3(C)C)[C@]1(OC(C)=O)CO[C@@H]1C[C@@H]2O + CN(C)c1ccc(Nc2c3ccc(NC(=O)CCN4CCCC4)cc3nc3cc(NC(=O)CCN4CCCC4)ccc23)cc1
Response line: 10

Prompt line: Answer briefly: viability, T/C recorded on 454973-116-R2-J3-PDC spheroids, viability, % test/control for COc1cccc2c1C(=O)c1c(O)c3c(c(O)c1C2=O)CC(O)(C(=O)CO)CC3OC1CC(N)C(O)C(C)O1 (centres undefined) + CN(C)c1ccc(Nc2c3ccc(NC(=O)CCN4CCCC4)cc3nc3cc(NC(=O)CCN4CCCC4)ccc23)cc1
Response line: 69.8

Prompt line: Answer briefly: viability, T/C recorded on 454973-116-R2-J3-PDC spheroids, viability, % test/control for COc1cc(C2c3cc4c(cc3C(OC3OC5COC(C)OC5C(O)C3O)C3COC(=O)C23)OCO4)cc(OC)c1O (centres undefined) + Cc1[nH]c2ccc(F)cc2c1-c1nc2c3cccnc3c3ncccc3c2[nH]1
Response line: 101

Prompt line: Answer briefly: viability, T/C recorded on 454973-116-R2-J3-PDC spheroids, viability, % test/control for CC1COCCN1c1cc(C2(S(C)(=N)=O)CC2)nc(-c2ccnc3[nH]ccc23)n1 (centres undefined) + Cc1[nH]c2ccc(F)cc2c1-c1nc2c3cccnc3c3ncccc3c2[nH]1
Response line: 110

Prompt line: Answer briefly: viability, T/C recorded on 454973-116-R2-J3-PDC spheroids, viability, % test/control for O=c1[nH]cc(F)c(=O)[nH]1 + CN(C)c1ccc(Nc2c3ccc(NC(=O)CCN4CCCC4)cc3nc3cc(NC(=O)CCN4CCCC4)ccc23)cc1
Response line: 103

Prompt line: Answer briefly: viability, T/C recorded on 454973-116-R2-J3-PDC spheroids, viability, % test/control for CC(C)(O)C1CCC(Nc2ccc3ncc(-c4cccc(C(F)(F)F)c4)n3n2)CC1 (centres undefined) + Cc1cnc(CNC(=O)c2c(=O)c3ccc(N4CCCN(C)CC4)nc3n3c2sc2ccccc23)cn1
Response line: 69.2

Prompt line: Answer briefly: viability, T/C recorded on 454973-116-R2-J3-PDC spheroids, viability, % test/control for C#Cc1c(F)ccc2cc(O)cc(-c3ncc4c(N5CC6CCC(C5)N6)nc(OCC56CCCN5CC(F)C6)nc4c3F)c12 (centres undefined) + Cc1[nH]c2ccc(F)cc2c1-c1nc2c3cccnc3c3ncccc3c2[nH]1
Response line: 45.2

Prompt line: Answer briefly: viability, T/C recorded on 454973-116-R2-J3-PDC spheroids, viability, % test/control for C=CCn1c(=O)c2cnc(Nc3ccc(N4CCN(C)CC4)cc3)nc2n1-c1cccc(C(C)(C)O)n1 + Cc1cnc(CNC(=O)c2c(=O)c3ccc(N4CCCN(C)CC4)nc3n3c2sc2ccccc23)cn1
Response line: 49.7

Prompt line: Answer briefly: viability, T/C recorded on 454973-116-R2-J3-PDC spheroids, viability, % test/control for CC(=O)O[C@H]1C(=O)[C@@]2(C)[C@H]([C@H](OC(=O)c3ccccc3)[C@]3(O)C[C@H](OC(=O)[C@H](O)[C@@H](NC(=O)c4ccccc4)c4ccccc4)C(C)=C1C3(C)C)[C@]1(OC(C)=O)CO[C@@H]1C[C@@H]2O + Cc1[nH]c2ccc(F)cc2c1-c1nc2c3cccnc3c3ncccc3c2[nH]1
Response line: 9.07

Prompt line: Answer briefly: viability, T/C recorded on 454973-116-R2-J3-PDC spheroids, viability, % test/control for Cc1cccc(N(C)C(=O)C2C(O)CCN2c2nc(C)cc(C(F)(F)F)c2C#N)c1 (centres undefined) + Cc1cnc(CNC(=O)c2c(=O)c3ccc(N4CCCN(C)CC4)nc3n3c2sc2ccccc23)cn1
Response line: 71.5

Prompt line: Answer briefly: viability, T/C recorded on 454973-116-R2-J3-PDC spheroids, viability, % test/control for O=C(c1cc(Cc2n[nH]c(=O)c3ccccc23)ccc1F)N1CCN(C(=O)C2CC2)CC1 + Cc1cnc(CNC(=O)c2c(=O)c3ccc(N4CCCN(C)CC4)nc3n3c2sc2ccccc23)cn1
Response line: 67.4

Prompt line: Answer briefly: viability, T/C recorded on 454973-116-R2-J3-PDC spheroids, viability, % test/control for COc1cccc2c1C(=O)c1c(O)c3c(c(O)c1C2=O)CC(O)(C(=O)CO)CC3OC1CC(N)C(O)C(C)O1 (centres undefined) + Cc1[nH]c2ccc(F)cc2c1-c1nc2c3cccnc3c3ncccc3c2[nH]1
Response line: 59.7

Prompt line: Answer briefly: viability, T/C recorded on 454973-116-R2-J3-PDC spheroids, viability, % test/control for O=C(c1cc(Cc2n[nH]c(=O)c3ccccc23)ccc1F)N1CCN(C(=O)C2CC2)CC1 + Cc1[nH]c2ccc(F)cc2c1-c1nc2c3cccnc3c3ncccc3c2[nH]1
Response line: 103

Prompt line: Answer briefly: viability, T/C recorded on 454973-116-R2-J3-PDC spheroids, viability, % test/control for CC(=O)O[C@H]1C(=O)[C@@]2(C)[C@H]([C@H](OC(=O)c3ccccc3)[C@]3(O)C[C@H](OC(=O)[C@H](O)[C@@H](NC(=O)c4ccccc4)c4ccccc4)C(C)=C1C3(C)C)[C@]1(OC(C)=O)CO[C@@H]1C[C@@H]2O + Cc1cnc(CNC(=O)c2c(=O)c3ccc(N4CCCN(C)CC4)nc3n3c2sc2ccccc23)cn1
Response line: 17.2

Prompt line: Answer briefly: viability, T/C recorded on 454973-116-R2-J3-PDC spheroids, viability, % test/control for O=C(NO)c1cnc(N2CCN(S(=O)(=O)c3ccc4ccccc4c3)CC2)nc1 + CN(C)c1ccc(Nc2c3ccc(NC(=O)CCN4CCCC4)cc3nc3cc(NC(=O)CCN4CCCC4)ccc23)cc1
Response line: 83.4

Prompt line: Answer briefly: viability, T/C recorded on 454973-116-R2-J3-PDC spheroids, viability, % test/control for CC1COCCN1c1cc(C2(S(C)(=N)=O)CC2)nc(-c2ccnc3[nH]ccc23)n1 (centres undefined) + CN(C)c1ccc(Nc2c3ccc(NC(=O)CCN4CCCC4)cc3nc3cc(NC(=O)CCN4CCCC4)ccc23)cc1
Response line: 103

Prompt line: Answer briefly: viability, T/C recorded on 454973-116-R2-J3-PDC spheroids, viability, % test/control for C#Cc1c(F)ccc2cc(O)cc(-c3ncc4c(N5CC6CCC(C5)N6)nc(OCC56CCCN5CC(F)C6)nc4c3F)c12 (centres undefined) + CN(C)c1ccc(Nc2c3ccc(NC(=O)CCN4CCCC4)cc3nc3cc(NC(=O)CCN4CCCC4)ccc23)cc1
Response line: 35.7

Prompt line: Answer briefly: viability, T/C recorded on 454973-116-R2-J3-PDC spheroids, viability, % test/control for Cc1cccc(N(C)C(=O)C2C(O)CCN2c2nc(C)cc(C(F)(F)F)c2C#N)c1 (centres undefined) + Cc1[nH]c2ccc(F)cc2c1-c1nc2c3cccnc3c3ncccc3c2[nH]1
Response line: 104
